Ref: paper PMC11345841

molecular target: EPHB6 (Homo sapiens, UniProt O15197); construct: purchased Eurofins DiscoverX KINOMEscan (scanTK); experiment: KINOMEscan ScanTK; type: binding; details: @1000nM, read-out: %Control
Sequence (O15197 32-1021): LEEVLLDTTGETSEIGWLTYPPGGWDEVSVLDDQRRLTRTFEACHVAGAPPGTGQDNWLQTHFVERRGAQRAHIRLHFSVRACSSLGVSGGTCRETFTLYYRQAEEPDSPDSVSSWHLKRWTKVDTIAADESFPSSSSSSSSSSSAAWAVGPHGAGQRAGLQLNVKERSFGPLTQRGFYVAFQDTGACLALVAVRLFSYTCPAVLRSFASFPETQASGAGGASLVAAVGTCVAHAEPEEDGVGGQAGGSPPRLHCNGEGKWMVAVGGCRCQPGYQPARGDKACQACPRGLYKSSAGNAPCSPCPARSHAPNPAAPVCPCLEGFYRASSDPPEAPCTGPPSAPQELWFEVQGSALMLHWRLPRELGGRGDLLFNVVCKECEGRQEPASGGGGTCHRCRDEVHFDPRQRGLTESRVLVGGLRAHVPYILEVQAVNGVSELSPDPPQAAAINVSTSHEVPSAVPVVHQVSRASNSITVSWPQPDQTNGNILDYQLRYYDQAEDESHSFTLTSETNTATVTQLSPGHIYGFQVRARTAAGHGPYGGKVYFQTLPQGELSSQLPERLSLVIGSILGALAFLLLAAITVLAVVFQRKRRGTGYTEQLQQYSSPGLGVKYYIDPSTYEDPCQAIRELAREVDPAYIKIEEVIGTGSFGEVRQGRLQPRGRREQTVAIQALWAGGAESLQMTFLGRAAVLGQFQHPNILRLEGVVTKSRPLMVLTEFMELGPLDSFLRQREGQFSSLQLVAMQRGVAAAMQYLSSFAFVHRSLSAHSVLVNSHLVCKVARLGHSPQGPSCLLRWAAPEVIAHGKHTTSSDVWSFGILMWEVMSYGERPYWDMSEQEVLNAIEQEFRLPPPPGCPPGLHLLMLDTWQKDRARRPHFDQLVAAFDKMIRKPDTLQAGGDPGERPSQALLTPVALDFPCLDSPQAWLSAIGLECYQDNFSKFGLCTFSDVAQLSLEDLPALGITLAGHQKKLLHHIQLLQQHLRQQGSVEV
readoutLabel: remaining binding at 1 µM (%)
State just the number; it will be interpreted in %.

The compound listed as CNC(=O)c1cnc(S(C)(=O)=O)nc1N1CCCC(n2nc(-c3ccc(Oc4ccccc4)cc3)c3c(N)ncnc32)C1 (centres unmarked) has a reported remaining binding at 1 µM of 34

The compound listed as COC(=O)c1cnc(S(C)(=O)=O)nc1N1CCCC(n2nc(-c3ccc(Oc4ccccc4)cc3)c3c(N)ncnc32)C1 (centres unmarked) has a reported remaining binding at 1 µM of 8.9

The compound listed as Cc1cnc(S(C)(=O)=O)nc1N1CCCC(n2nc(-c3ccc(Oc4ccccc4)cc3)c3c(N)ncnc32)C1 (centres unmarked) has a reported remaining binding at 1 µM of 24

The compound listed as `CCOC(=O)c1cnc(S(C)(=O)=O)nc1N1CCC[C@@H](n2nc(-c3ccc(Oc4ccccc4)cc3)c3c(N)ncnc32)C1` has a reported remaining binding at 1 µM of 72

The compound listed as C=CC(=O)N1CCC[C@@H](n2nc(-c3ccc(Oc4ccccc4)cc3)c3c(N)ncnc32)C1 [Compound 1g, Ibrutinib, reference compound] has a reported remaining binding at 1 µM of 18
